Reference for the values: patent US20260297060A1

assay: Pharmacokinetics in female BALB/c nude mice bearing A375 xenografts, 1 day dosing (PK and PD study): plasma, tumor and brain concentrations, AUC; assay type: in vivo; details: mouse, tumor, po, 1.5 mg/kg, Compound 141; 1.5 mg/kg p.o. BID × 1 day; post 2nd dose; 48 h; read-out: Mean Concentration in Tumor ± SEM

MOLECULE	concentration at 48 h (ng/g)
CCN(C)S(=O)(=O)Nc1ccc(F)c(Oc2ccc3ncn(C4CC5(CCN(C6CC7(C6)CN(c6cc8c(cc6F)c(N6CCC(=O)NC6=O)nn8C)C7)CC5)C4)c(=O)c3c2)c1C#N (stereo not shown)	11.1

###

Assay: Pharmacokinetics after 21 days dosing in the efficacy study (plasma, tumor and brain concentrations; plasma AUC at steady state), Example 14
Format: in vivo, female BALB/c nude mice
Conditions: mouse, plasma, po; 1 mg/kg p.o. TID x 21 days; 24 h; mean ± SEM; read-out: Concentration in Plasma
Method: Agents were tested in the A375 human melanoma xenografts. […] Dabrafenib, Compound 26 and Compound 141 in female BALB/c nude mice plasma (K2-EDTA), tumor and brain homogenate were analyzed by LC-MS/MS (Triple Quad 6500+ Low Mass). […]
MEASURE: concentration at 24 h

COMPOUND	MEASURE	TEST VALUE
CCN(C)S(=O)(=O)Nc1ccc(F)c(Oc2ccc3ncn(C4CC5(CCN(C6CC7(C6)CN(c6cc8c(cc6F)c(N6CCC(=O)NC6=O)nn8C)C7)CC5)C4)c(=O)c3c2)c1C#N (stereo not shown) [Compound 141]	concentration at 24 h	33.7 ng/mL
